molecular target: 5-hydroxytryptamine receptor 4 (Homo sapiens, UniProt Q13639); assay: Displacement of [3H]GR-113808 from human 5HT4 isoform E receptor expressed in rat C6 cells at 10 nM by liquid scintillation counting; assay type: cell-based
Sequence (Q13639 whole entry, canonical isoform): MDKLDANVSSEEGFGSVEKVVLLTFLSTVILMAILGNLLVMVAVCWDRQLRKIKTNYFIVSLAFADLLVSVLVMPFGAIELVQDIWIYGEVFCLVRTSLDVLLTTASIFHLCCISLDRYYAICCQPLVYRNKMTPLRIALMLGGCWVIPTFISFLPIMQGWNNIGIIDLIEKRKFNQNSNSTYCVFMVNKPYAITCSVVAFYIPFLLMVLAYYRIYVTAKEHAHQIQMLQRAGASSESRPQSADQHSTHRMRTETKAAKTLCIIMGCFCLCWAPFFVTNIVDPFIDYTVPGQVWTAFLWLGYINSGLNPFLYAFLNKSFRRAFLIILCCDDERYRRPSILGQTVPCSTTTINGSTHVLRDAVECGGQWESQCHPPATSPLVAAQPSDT
Activity values for the compounds below.

[
  {
    "MOL SMILES": "COc1cc(N)c(Cl)cc1C(=O)OCCN1CCC(NC(=O)CC(C)C)CC1",
    "Activity": "< 10%"
  },
  {
    "MOL SMILES": "COc1cc(N)c(Cl)cc1C(=O)OCCN1CCC(CNC(=O)CCc2ccccc2)CC1",
    "Activity": "20%"
  },
  {
    "MOL SMILES": "COc1cc(N)c(Cl)cc1C(=O)OCCN1CCC(NC(=O)c2ccccc2F)CC1",
    "Activity": "10%"
  },
  {
    "MOL SMILES": "COc1cc(N)c(Cl)cc1C(=O)OCCN1CCC(NC(=O)Cc2ccccc2Cl)CC1",
    "Activity": "10%"
  },
  {
    "MOL SMILES": "COc1cc(N)c(Cl)cc1C(=O)OCCN1CCC(NC(=O)Cc2ccc([N+](=O)[O-])cc2)CC1",
    "Activity": "20%"
  },
  {
    "MOL SMILES": "COc1cc(N)c(Cl)cc1C(=O)OCCN1CCC(CNC(=O)CCCc2ccccc2)CC1",
    "Activity": "20%"
  },
  {
    "MOL SMILES": "COc1cc(N)c(Cl)cc1C(=O)OCCN1CCC(CNC(=O)Cc2ccc([N+](=O)[O-])cc2)CC1",
    "Activity": "40%"
  },
  {
    "MOL SMILES": "COc1cc(N)c(Cl)cc1C(=O)OCCN1CCC(NC(=O)CSc2ccccc2)CC1",
    "Activity": "20%"
  },
  {
    "MOL SMILES": "COc1cc(N)c(Cl)cc1C(=O)OCCN1CCC(NC(=O)CCCNS(=O)(=O)c2ccc(C)cc2)CC1",
    "Activity": "10%"
  }
]

###

target: 5-hydroxytryptamine receptor 4 (Homo sapiens, UniProt Q13639); test: Displacement of [3H]GR-113808 from human 5HT4 isoform E receptor expressed in rat C6 cells at 10 nM by liquid scintillation counting; type: cell-based
The label Yes is reserved for Activity strictly under 20%; No covers values equal to or above it.

[
  {
    "MOL SMILES": "COc1ccc(OC)c(CC(=O)NCC2CCN(CCOC(=O)c3cc(Cl)c(N)cc3OC)CC2)c1",
    "ASSIGNED LABEL": "No"
  },
  {
    "MOL SMILES": "COc1cc(N)c(Cl)cc1C(=O)OCCN1CCC(NC(=O)Cc2ccc(Br)cc2)CC1",
    "ASSIGNED LABEL": "Yes"
  },
  {
    "MOL SMILES": "COc1cc(N)c(Cl)cc1C(=O)OCCN1CCC(NC(=O)CCC2CCCCC2)CC1",
    "ASSIGNED LABEL": "Yes"
  },
  {
    "MOL SMILES": "COc1cc(N)c(Cl)cc1C(=O)OCCN1CCC(NC(=O)c2ccsc2)CC1",
    "ASSIGNED LABEL": "Yes"
  },
  {
    "MOL SMILES": "COc1cc(N)c(Cl)cc1C(=O)OCCN1CCC(CNC(=O)CCc2cccs2)CC1",
    "ASSIGNED LABEL": "No"
  },
  {
    "MOL SMILES": "COc1cc(N)c(Cl)cc1C(=O)OCCN1CCC(CNC(=O)CCCNS(=O)(=O)c2ccc(C)cc2)CC1",
    "ASSIGNED LABEL": "No"
  },
  {
    "MOL SMILES": "COc1cc(N)c(Cl)cc1C(=O)OCCN1CCC(CNC(=O)c2ccc(C)nc2O)CC1",
    "ASSIGNED LABEL": "Yes"
  },
  {
    "MOL SMILES": "COc1cc(N)c(Cl)cc1C(=O)OCCN1CCC(NC(=O)CCCCc2ccccc2)CC1",
    "ASSIGNED LABEL": "Yes"
  },
  {
    "MOL SMILES": "COc1cc(N)c(Cl)cc1C(=O)OCCN1CCC(CNC(=O)CCCCc2ccccc2)CC1",
    "ASSIGNED LABEL": "Yes"
  },
  {
    "MOL SMILES": "COc1cc(N)c(Cl)cc1C(=O)OCCN1CCC(CNC(=O)Cc2ccc(Br)cc2)CC1",
    "ASSIGNED LABEL": "No"
  },
  {
    "MOL SMILES": "COc1cc(N)c(Cl)cc1C(=O)OCCN1CCC(NC(=O)CCCNCCCc2ccc(CCCNCCCC(=O)NC3CCN(CCOC(=O)c4cc(Cl)c(N)cc4OC)CC3)cc2)CC1",
    "ASSIGNED LABEL": "Yes"
  },
  {
    "MOL SMILES": "COc1cc(N)c(Cl)cc1C(=O)OCCN1CCCCC1",
    "ASSIGNED LABEL": "No"
  },
  {
    "MOL SMILES": "COc1cc(N)c(Cl)cc1C(=O)OCCN1CCC(CNC(=O)CCC2CCCCC2)CC1",
    "ASSIGNED LABEL": "Yes"
  }
]

###

Activity values for the compounds below.
target: 5-hydroxytryptamine receptor 4 (Homo sapiens); assay: Displacement of [3H]GR-113808 from human 5HT4 isoform E receptor expressed in rat C6 cells at 10 nM by liquid scintillation counting; assay type: cell-based

[
  {
    "MOL SMILES": "COc1cc(N)c(Cl)cc1C(=O)OCCN1CCC(NC(=O)CC2CCCCC2)CC1",
    "RESULT MODIFIER": "<",
    "Activity (%)": 10
  },
  {
    "MOL SMILES": "COc1cc(N)c(Cl)cc1C(=O)OCCN1CCC(CNC(=O)c2ccsc2)CC1",
    "RESULT MODIFIER": "=",
    "Activity (%)": 10
  },
  {
    "MOL SMILES": "COc1cc(N)c(Cl)cc1C(=O)OCCN1CCC(NC(=O)CCc2ccccc2)CC1",
    "RESULT MODIFIER": "=",
    "Activity (%)": 20
  },
  {
    "MOL SMILES": "COc1cc(N)c(Cl)cc1C(=O)OCCN1CCC(CNC(=O)CSc2ccccc2)CC1",
    "RESULT MODIFIER": "=",
    "Activity (%)": 30
  }
]

###

target: 5-hydroxytryptamine receptor 4 (Homo sapiens); assay: Agonist activity at human 5HT4 isoform E receptor expressed in rat C6 cells assessed as cAMP accumulation at 10 nM by radio-immunoassay relative to 5HT; assay type: functional, cell-based

[
  {
    "MOL SMILES": "CCCC(=O)NCC1CCN(CCOC(=O)c2cc(Cl)c(N)cc2OC)CC1",
    "VALUE UNIT": "%",
    "RESULT MODIFIER": "<",
    "Emax": 10
  },
  {
    "MOL SMILES": "COc1cc(N)c(Cl)cc1C(=O)OCCN1CCC(CNC(=O)C(C)C)CC1",
    "VALUE UNIT": "%",
    "RESULT MODIFIER": "=",
    "Emax": 10
  },
  {
    "MOL SMILES": "COc1cc(N)c(Cl)cc1C(=O)OCCN1CCC(NC(=O)CCCNCCCc2ccc(CCCNCCCC(=O)NC3CCN(CCOC(=O)c4cc(Cl)c(N)cc4OC)CC3)cc2)CC1",
    "VALUE UNIT": "%",
    "RESULT MODIFIER": ">",
    "Emax": 50
  },
  {
    "MOL SMILES": "COc1cc(N)c(Cl)cc1C(=O)OCCN1CCC(CNC(=O)CCc2ccccc2)CC1",
    "VALUE UNIT": "%",
    "RESULT MODIFIER": "=",
    "Emax": 20
  },
  {
    "MOL SMILES": "COc1ccc(OC)c(CC(=O)NCC2CCN(CCOC(=O)c3cc(Cl)c(N)cc3OC)CC2)c1",
    "VALUE UNIT": "%",
    "RESULT MODIFIER": "=",
    "Emax": 10
  },
  {
    "MOL SMILES": "COc1cc(N)c(Cl)cc1C(=O)OCCN1CCC(CNC(=O)c2cccs2)CC1",
    "VALUE UNIT": "%",
    "RESULT MODIFIER": "<",
    "Emax": 10
  }
]

###

Emax values for the compounds below.
biological target: 5-hydroxytryptamine receptor 4 (Homo sapiens, UniProt Q13639); experiment: Agonist activity at human 5HT4 isoform E receptor expressed in rat C6 cells assessed as cAMP accumulation at 10 nM by radio-immunoassay relative to 5HT; type: functional, cell-based

[
  {
    "MOL SMILES": "COc1cc(N)c(Cl)cc1C(=O)OCCN1CCC(CNC(=O)CC2CCCCC2)CC1",
    "Emax": "< -10%"
  },
  {
    "MOL SMILES": "COc1cc(N)c(Cl)cc1C(=O)OCCN1CCC(NC(=O)CCc2ccccc2)CC1",
    "Emax": "< 10%"
  },
  {
    "MOL SMILES": "COc1cc(N)c(Cl)cc1C(=O)OCCN1CCC(CNC(=O)CCc2cccs2)CC1",
    "Emax": "30%"
  },
  {
    "MOL SMILES": "COc1cc(N)c(Cl)cc1C(=O)OCCN1CCC(NC(=O)CCCNS(=O)(=O)c2ccc(C)cc2)CC1",
    "Emax": "10%"
  },
  {
    "MOL SMILES": "COc1cc(N)c(Cl)cc1C(=O)OCCN1CCC(CNC(=O)CCCNS(=O)(=O)c2ccc(-c3ccccc3)cc2)CC1",
    "Emax": "< 10%"
  },
  {
    "MOL SMILES": "COc1cc(N)c(Cl)cc1C(=O)OCCN1CCC(CNC(=O)CSc2ccccc2)CC1",
    "Emax": "< 10%"
  },
  {
    "MOL SMILES": "COc1cc(N)c(Cl)cc1C(=O)OCCN1CCC(CNC(=O)CCC2CCCCC2)CC1",
    "Emax": "> 50%"
  },
  {
    "MOL SMILES": "COc1cc(N)c(Cl)cc1C(=O)OCCN1CCC(NC(=O)Cc2ccc(Br)cc2)CC1",
    "Emax": "10%"
  },
  {
    "MOL SMILES": "COc1cc(N)c(Cl)cc1C(=O)OCCN1CCC(CNC(=O)CC(C)(C)C)CC1",
    "Emax": "10%"
  },
  {
    "MOL SMILES": "COc1cc(N)c(Cl)cc1C(=O)OCCN1CCC(CNC(=O)c2ccccc2F)CC1",
    "Emax": "0%"
  },
  {
    "MOL SMILES": "COc1cc(N)c(Cl)cc1C(=O)OCCN1CCC(NC(=O)Cc2ccc([N+](=O)[O-])cc2)CC1",
    "Emax": "20%"
  },
  {
    "MOL SMILES": "COc1cc(N)c(Cl)cc1C(=O)OCCN1CCC(NC(=O)c2ccccc2F)CC1",
    "Emax": "10%"
  },
  {
    "MOL SMILES": "COc1cc(N)c(Cl)cc1C(=O)OCCN1CCC(CNC(=O)CCCCc2ccccc2)CC1",
    "Emax": "10%"
  },
  {
    "MOL SMILES": "COc1cc(N)c(Cl)cc1C(=O)OCCN1CCC(CNC(=O)CCCNS(=O)(=O)c2ccc(C)cc2)CC1",
    "Emax": "> 70%"
  },
  {
    "MOL SMILES": "COc1cc(N)c(Cl)cc1C(=O)OCCN1CCC(NC(=O)Cc2ccccc2Cl)CC1",
    "Emax": "> 50%"
  },
  {
    "MOL SMILES": "COc1cc(N)c(Cl)cc1C(=O)OCCN1CCC(CNC(=O)Cc2ccccc2Cl)CC1",
    "Emax": "20%"
  },
  {
    "MOL SMILES": "COc1cc(N)c(Cl)cc1C(=O)OCCN1CCC(CNC(=O)CCCc2ccccc2)CC1",
    "Emax": "0%"
  },
  {
    "MOL SMILES": "COc1cc(N)c(Cl)cc1C(=O)OCCN1CCC(NC(=O)CC(C)C)CC1",
    "Emax": "10%"
  },
  {
    "MOL SMILES": "COc1cc(N)c(Cl)cc1C(=O)OCCN1CCC(CNC(=O)c2ccc(C)nc2O)CC1",
    "Emax": "10%"
  },
  {
    "MOL SMILES": "COc1cc(N)c(Cl)cc1C(=O)OCCN1CCC(NC(=O)c2cccs2)CC1",
    "Emax": "< 10%"
  }
]

Data provenance is ChEMBL document CHEMBL1153823.
